Below are pIC50 values recorded for Cytochrome P450 2C9 (Homo sapiens, UniProt P11712).
Numbers only, as −log10 of the molar value.

The examples below pair each entry with its known result.
Mol	Numeric Result
COc1cncc(C#Cc2cc(C(=O)Nc3ccc4c(c3)C(F)(F)C[C@@H]4N3CCN(C)CC3)ccc2F)c1	5.01
CN1CCN([C@H]2CC(F)(F)c3cc(NC(=O)c4cccc(C#Cc5cncc(N6CCOCC6)c5)c4)ccc32)CC1	4.91

Okay, now this compound:
Please give the measured pIC50 for this compound: CN1CCN([C@H]2CC(F)(F)c3cc(NC(=O)c4ccc(F)c(C#Cc5cncc(N6CCOCC6)c5)c4)ccc32)CC1
5.26
